Provide the reported Fold Induction, Z3 Assay, 3.3 uM of each item.
- Assay System: Bombyx mori EcR (VP16 fusion, CVBE switch construct) (Bombyx mori)
- Method Summary: Z3 Assay (HEK-293 cells with CVBE and 6XEcRE LacZ, β-galactosidase reporter)
- Condition Parameters: 3.3 uM ligand; ligand treated / DMSO treated cells; average of two wells

Q) Item under review: COc1cc(OC)cc(C(=O)N(NC(=O)c2cccc(C)c2C)C(C)(C)C)c1 . Reported Fold Induction, Z3 Assay, 3.3 uM?
A) 915

Q) Next: CCc1ccc(C(=O)NN(C(=O)c2cccc(OC)c2)C(C)(C)C)c(F)c1
A) 112

Q) Next: COc1cc(C(=O)N(NC(=O)c2ccc3c(c2C)CCCO3)C(C)(C)C)cc(OC)c1C
A) 573

Look at each molecule and report its Fold Induction, Z3 Assay, 3.3 uM.
1. CCc1ccccc1C(=O)N(NC(=O)c1cccc(OC)c1C)C(C)(C)C
2. COc1ccc(C(=O)NN(C(=O)c2cc(Cl)cc(Cl)c2)C(C)(C)C)cc1
3. CCCC(N(NC(=O)c1cccc(OC)c1CC)C(=O)c1cc(C)cc(C)c1)C(C)(C)C (centres unmarked)

A)
1: 1127; 2: 1293; 3: 1604

Look at each molecule and report its Fold Induction, Z3 Assay, 3.3 uM.
1. CCc1c(OC)cccc1C(=O)NN(C(=O)c1cccc2c1OCO2)C(C)(C)C
2. COc1cc(Cl)ccc1C(=O)N(NC(=O)c1cccc(OC)c1C)C(C)(C)C

A)
874
885

---

- Assay System: GAL4 DBD-CfEcR(DEF)/VP16AD-MmRXRE (Choristoneura fumiferana)
- Method Summary: 13B3 Assay (CHO stable cell line, luciferase reporter)
- Condition Parameters: 3.3 uM ligand; RLU ligand treated / RLU DMSO treated cells; average of two wells
// boundary case: Fold Induction, 13B3 Assay, 3.3 uM equal to 900 maps to Not satisfied; strictly smaller maps to Satisfied

Some solved cases for reference:
Q) Please check: Fold Induction, 13B3 Assay, 3.3 uM for CCc1c(OC)cccc1C(=O)NN(C(=O)c1cc(OC)c(O)c(OC)c1)C(C)(C)C , strictly under 900 or not?
A) Satisfied

Q) Next: Cc1cc(C)cc(C(=O)N(NC(=O)c2ccc3c(c2Br)OCCO3)C(C)(C)C)c1
A) Satisfied

Q) Next: CCc1c(OC)cccc1C(=O)NN(C(=O)c1cc(C)cc(C=NNC(=O)C(N)=O)c1)C(C)(C)C
A) Satisfied

Further cases:
Q) Please check: Fold Induction, 13B3 Assay, 3.3 uM for CCc1c(OC)cccc1C(=O)NN(C(=O)c1cc(C)cc(C=NO)c1)C(C)(C)C , strictly under 900 or not?
A) Satisfied

---

- Assay System: Bombyx mori EcR (VP16 fusion, CVBE switch construct) (Bombyx mori, UniProt P49881)
- Method Summary: Z3 Assay (HEK-293 cells with CVBE and 6XEcRE LacZ, β-galactosidase reporter)
- Condition Parameters: maximum fold induction at any concentration relative to that of GS-E ligand; HEK-293 Z3 cells
Provide the reported Z3 assay Rel Max FI of each item.
Answers are plain numbers.

// below: answered compounds
Q) Item under review: COc1cccc(C(=O)NN(C(=O)c2cc(C)cc(C)c2)C(C)(C)C)c1C . Reported Z3 assay Rel Max FI?
A) 1.027

Q) Next: CCOC(=O)C(C)(C)N(NC(=O)c1cccc(OC)c1CC)C(=O)c1cc(C)cc(C)c1
A) 0.385

Q) Next: Cc1c(C(=O)NN(C(=O)c2cc(Cl)cc(Cl)c2)C(C)(C)C)cccc1N(C)C
A) 0.896

Q) Next: COc1cc(C)ccc1C(=O)N(NC(=O)c1cccc(OC)c1C)C(C)(C)C
A) 1.109

Q) Next: CCc1c(OC)cccc1C(=O)NN(C(=O)c1cc(C)cc(C)c1)C(C)(C)C=NO
A) 0.882

Q) Next: COc1cccc(C(=O)NN(C(=O)c2cc(C)cc(Br)c2)C(C)(C)C)c1C
A) 1.078

Q) Next: CCc1c(OC)cccc1C(=O)NN(C(=O)c1cc(OC)c(C)c(OC)c1)C(CC)C(C)(C)C (stereo not shown)
A) 0.937

Q) Next: Cc1c(C(=O)NN(C(=O)c2ccc(F)cc2)C(C)(C)C)ccc2c1CCCO2
A) 0.969

Q) Next: CCc1c(OC)cccc1C(=O)NN(C(=O)c1c(F)cccc1F)C(C)(C)C
A) 0.575

Q) Next: CCc1c(OC)cccc1C(=O)NN(C(=O)c1cc(OC)ccc1OC)C(C)(C)C
A) 0.707

Look at each compound and report its Z3 assay Rel Max FI.
1. COc1cccc(C(=O)NN(C(=O)c2cc(Cl)cc(Br)c2)C(C)(C)C)c1C
2. CCc1c(OC)cccc1C(=O)NN(C(=O)c1cc(F)cc(C(F)(F)F)c1)C(C)(C)C

A)
1.118
0.958

---

- Assay System: Bombyx mori EcR (VP16 fusion, CVBE switch construct) (Bombyx mori, UniProt P49881)
- Sequence (P49881 86-606): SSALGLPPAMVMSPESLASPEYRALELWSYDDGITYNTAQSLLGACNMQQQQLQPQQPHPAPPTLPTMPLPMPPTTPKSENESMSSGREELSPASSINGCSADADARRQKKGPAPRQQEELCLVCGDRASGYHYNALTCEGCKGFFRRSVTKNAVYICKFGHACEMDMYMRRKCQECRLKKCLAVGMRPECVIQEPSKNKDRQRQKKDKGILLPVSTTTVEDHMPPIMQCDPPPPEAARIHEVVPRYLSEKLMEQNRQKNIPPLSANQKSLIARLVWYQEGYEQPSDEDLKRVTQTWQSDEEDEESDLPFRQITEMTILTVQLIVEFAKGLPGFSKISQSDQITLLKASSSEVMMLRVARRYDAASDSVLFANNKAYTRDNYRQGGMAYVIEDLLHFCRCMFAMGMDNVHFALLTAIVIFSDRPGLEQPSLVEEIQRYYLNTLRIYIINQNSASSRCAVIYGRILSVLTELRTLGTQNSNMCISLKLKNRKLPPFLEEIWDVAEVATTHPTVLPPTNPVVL
- Sequence (P19793 1-462 partner): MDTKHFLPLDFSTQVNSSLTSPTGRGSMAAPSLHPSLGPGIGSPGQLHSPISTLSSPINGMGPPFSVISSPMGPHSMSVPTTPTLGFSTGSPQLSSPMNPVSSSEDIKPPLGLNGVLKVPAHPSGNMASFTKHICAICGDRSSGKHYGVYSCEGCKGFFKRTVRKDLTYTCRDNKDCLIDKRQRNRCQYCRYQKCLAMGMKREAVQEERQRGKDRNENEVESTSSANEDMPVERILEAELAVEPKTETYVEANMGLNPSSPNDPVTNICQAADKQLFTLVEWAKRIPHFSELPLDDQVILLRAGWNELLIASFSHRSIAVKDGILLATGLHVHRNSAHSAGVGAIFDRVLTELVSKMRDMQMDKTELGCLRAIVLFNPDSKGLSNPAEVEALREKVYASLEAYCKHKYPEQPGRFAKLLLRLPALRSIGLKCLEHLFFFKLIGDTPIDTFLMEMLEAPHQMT
- Method Summary: Z3 Assay (HEK-293 cells with CVBE and 6XEcRE LacZ, β-galactosidase reporter)
- Condition Parameters: read-out: Z3 assay EC50; HEK-293 Z3 cells, β-galactosidase reporter; average of two wells
Measure Name: EC50 (µM)
Numbers only, in µM.

// below: answered molecules
Q) Hello, I am looking for reported EC50 with Bombyx mori EcR (VP16 fusion, CVBE switch construct) (Bombyx mori, UniProt P49881) for CCc1c(C(=O)NN(C(=O)c2cccc(C)c2)C(C)(C)C)ccc2c1OCCO2 [RG-101036] . Could you help?
A) 0.054

Q) Next: CC(O)c1ccc(C(=O)NN(C(=O)c2cc(F)cc(F)c2)C(C)(C)C)cc1 (centres unmarked) [RG-100342]
A) 10.2

Q) Next: COc1cc(C)cc(C(=O)N(NC(=O)c2cccc(OC)c2C)C(C)(C)C)c1 [RG-100767]
A) 0.251

Look at each molecule and report its EC50.
1. COc1cc(Cl)ccc1C(=O)N(NC(=O)c1cccc(OC)c1C)C(C)(C)C [RG-100848]
2. CCc1ccc(C(=O)NN(C(=O)c2cc(C)cc(Cl)c2)C(C)(C)C)cc1 [RG-101774]

A)
1: 0.24; 2: 0.155

Look at each molecule and report its EC50.
1. CCc1c(C(=O)NN(C(=O)c2ccccc2)C(C)(C)C)ccc2c1OCOC2 [RG-115046]
2. COc1cccc(C(=O)NN(C(=O)c2cc(C)ccc2[N+](=O)[O-])C(C)(C)C)c1C [RG-100569]
3. CCc1ccc(C(=O)NN(C(=O)c2ccc(OC)nc2OC)C(C)(C)C)c(F)c1 [RG-115050]
4. CCc1c(C(=O)NN(C(=O)c2cc(C)cc(C)c2)C(C)(C)C)ccc2c1OC(C)O2 (centres unmarked) [RG-101659]

A)
1. 3.55
2. 0.098
3. 0.282
4. 0.214

Look at each molecule and report its EC50.
1. CCc1ccc(C(=O)NN(C(=O)c2cc(C)nc(Cl)c2)C(C)(C)C)c(F)c1 [RG-115112]
2. Cc1cc(C)cc(C(=O)N(NC(=O)c2ccc(CC#N)cc2)C(C)(C)C)c1 [RG-100875]
3. COc1cccc(C(=O)NN(C(=O)c2cc(C)cc(C)c2)C(C)(C)C)c1I [RG-101528]
4. Cc1cc(C)cc(C(=O)N(NC(=O)c2ccc3c(c2)CCO3)C(C)(C)C)c1 [RG-101531]

A)
0.309
2.04
1.05
0.085
